Tested on: OVCAR-4 ovarian
Procedure Summary: NCI tumour cell line growth inhibition, 48 h
Could you please report measured TGI for the items listed next?
Answers are plain numbers, in µM.

Solved entries (count: 2):
Input `C(=C\c1cc[n+](CCc2ccccc2)cc1)/c1ccccc1` , output reported TGI.
50.9

Provide only the value of recorded TGI for Cc1nc2ccc(S(=O)(=O)O)cc2c(=O)n1-c1ccc(C(=O)NN2C(=O)C(Cl)C2c2cccs2)cc1 (stereo not given)
79.7

Hi there! I need TGI for each item below, if you can.
1. Cc1cccc(Oc2ccc(Nc3ncnc4ccc(NC(=O)CN(C)C)cc34)cc2Cl)c1
2. Cc1ccccc1NC(=O)CC(=O)NNCC(=O)Nc1nnc(-c2ccccc2)s1
3. CN(C)CCCC1(c2ccc(F)cc2)OCc2cc(-c3csc4ccccc34)ccc21 (stereo not given)
4. CNCc1cccc2c1OCCOCCOCCNS(=O)(=O)c1ccc(cc1)-c1cnc(N)c(n1)C(=O)N2
5. CC[C@]12C=CCN3CC[C@@]4(c5ccc(OC)cc5N(C)[C@H]4[C@@](O)(C(=O)OC)[C@@H]1OC(=O)CCCN1CCN(CCCC(=O)O[C@@H]4[C@]5(CC)C=CCN6CC[C@@]7(c8ccc(OC)cc8N(C)[C@H]7[C@@]4(O)C(=O)OC)[C@@H]65)CC1)[C@@H]32

[5.59, 33.5, 3.28, 6.42, 2.44]

Could you report TGI for every entry in the following list?
1. COc1cc(Nc2cc(Cl)cc(Cl)c2)nc(N)n1
2. COc1cc2c(Oc3ccc(-c4cnc(Nc5ccc(F)cc5)n(C)c4=O)cc3F)ccnc2cc1OCCCN1CCOCC1

54
7.49

Batch request: TGI for each of the following molecules.
1. CN1CCN(C(=O)/C=C/c2ccc([N+](=O)[O-])o2)CC1
2. O=C(NO)c1ccc(CNc2cccc3nc(C4CC4)n(-c4ccccc4)c(=O)c23)cc1
3. COc1cc(/C=C/c2cc(/C=C/c3ccc(O)c(OC)c3)n(C(=O)Nc3ccc(C)cc3)n2)ccc1O
4. Cc1ccc(-c2nc([P+](c3ccccc3)(c3ccccc3)c3ccccc3)c(N3CCOCC3)o2)cc1
5. O=C(CC1(O)C(=O)Nc2c(Cl)cc(Cl)cc21)c1cccc([N+](=O)[O-])c1 (stereo not given)

[27.9, 21.9, 5.95, 3.03, 30]

====

Tested on: HCT-116 colon
Procedure Summary: NCI tumour cell line growth inhibition, 48 h
I'd appreciate it if you could supply TGI values for the items below.

Examples with answers:
Write TGI of `C(=NC12CC3CC(CC(C3)C1)C2)C1CCCCC1` ; system used: HCT-116 colon
> 100 µM

Answer briefly: TGI recorded on HCT-116 colon for CCC12C=C(C(=O)OC)N3c4ccccc4C4CCN(CCC1)C2C43 (stereo unspecified)
> 100 µM

Look up and report measured TGI (HCT-116 colon) for the following compound: `S=c1[nH]nc(Cn2c3ccc(Br)cc3c3nc4ccccc4nc32)o1`
> 100 µM

Give TGI; test system HCT-116 colon; compound O=C1NC(c2ccccc2Cl)Nc2ccccc21 (stereo unspecified)
> 100 µM

Lab note: each compound below needs its TGI filled in.
1. Fc1ccc2c(c1)SC1=Nc3sc4cc(F)ccc4[n+]3CN12
2. C/C=C1/C=CC2c3[nH]c4ccccc4c3CCN2C1 (stereo unspecified)
3. Cc1ccc2c(c1C)CC1(Cc3ccc(C)c(C)c3C1=O)C2=O (stereo unspecified)
4. COc1cc(CCN)c(OC)c(OC)c1
5. COc1cc(S(=O)(=O)Nc2nc(-c3ccc(N=Cc4ccccc4O)cc3)cs2)ccc1Cl
6. O[C@@H]1[C@H](OC2c3ccccc3-c3ccccc32)[C@H](OCc2ccccc2)[C@@H]2OC[C@H]1O2
7. Cc1nc2ccc(N=Nc3c(C)noc3C)cc2[nH]1

1. > 100 µM
2. > 400 µM
3. > 100 µM
4. > 100 µM
5. > 100 µM
6. > 100 µM
7. 91.4 µM

====

I'd appreciate it if you could supply log10 of TGI values for the items below.
Tested on: SNB-19 CNS
Procedure Summary: NCI tumour cell line growth inhibition, 48 h
Values below are the log10 of the recorded TGI, with µM as the unit.

Tell me log10 of TGI reported for `O=C(CCN1CCOCC1)Nc1ccc(Cn2nnc3c2C(=O)c2nnn(Cc4ccc(NC(=O)CCN5CCOCC5)cc4)c2C3=O)cc1`
0.49

Return log10 of TGI for the following compound: CC1(c2ccc(Cl)cc2)C=C(c2ccc(Cl)cc2)C(C#N)=C(C(C#N)C#N)N1 (configuration not stated)
1.57

Respond only with log10 of TGI recorded for `COc1cc2c(cc1OCCN1CCN(CCN3C(=O)c4cccc5cccc(c45)C3=O)CC1)N=C[C@@H]1CCCN1C2=O`
1.73

Note log10 of TGI for the compound shown: CC1OC(OC2C(OC(=O)[C@]34CCC(C)(C)C[C@H]3C3=CC[C@@H]5[C@@]6(C)CC[C@H](OC7OC(CO)C(O)C(O)C7OC7OC(CO)C(O)C(O)C7O)C(C)(C)[C@@H]6CC[C@@]5(C)[C@]3(C)CC4)OCC(O)C2O)C(O)C(O)C1OC1OCC(O)C(O)C1O (some centres not stated)
1.46

Name the recorded log10 of TGI of the compound listed here: `Oc1c(Br)cc(Cl)cc1C(c1cc(Cl)cc(Br)c1O)C(Cl)(Cl)Cl`
1.20

Give one value of log10 of TGI per listed compound.
1. COc1ccc(-c2c(Nc3ccccn3)nc3c(C4=CCCCC4)c(-c4ccccc4)[nH]n3c2=O)cc1
2. COc1cc(NC(=O)COc2ccccc2)c(C(N)=O)cc1OC

1. 1.24
2. 1.72

====

Tested on: SK-MEL-2 melanoma
Procedure Summary: NCI tumour cell line growth inhibition, 48 h; in the data active = GI50 below about 0.43 µM; inactive = the rest
Would you mind answering with one of these outcomes? label 1 (active), label 0 (inactive)

Here are 6 molecules together with their reported answers.
Identify the outcome logged in this assay for the molecule shown: CN(C)CCCC1(c2ccc(F)cc2)OCc2cc(-c3csc4ccccc34)ccc21 (configuration not stated)
label 0

Hi, sorry to bother you, what did the test record for `CCN1CCN(CC(=O)Nc2nc3ccc(NCc4ccc(Br)cc4)cc3s2)CC1` ?
label 0

Query: recorded result category for `O=C1NC(=NCc2cccs2)O/C1=C\c1ccc2ncccc2c1` in this test
label 0

Which outcome was entered for the molecule `C#CCCCCCC(=O)N[C@H]1C=C[C@@H]2/C=C(C)/C=C/[C@@H](C)[C@H]([C@H](C)[C@H](O)[C@@H](C)NC(C)=O)OC(=O)/C=C/C=C(C)\C=C\[C@]2(C)C1` in this test?
label 0

Query: recorded result category for `CN(c1ccccc1)c1c2ccccc2nc2[nH]c3ccccc3c12` in this test
label 0

Which outcome did this test record for the molecule `Cc1cccc(Oc2ccc(Nc3ncnc4ccc(NC(=O)CN(C)C)cc34)cc2Cl)c1` ?
label 0

From here, focus on the item given below.
Hi team, can someone confirm the assay call for `OCc1ccc(N2CCc3ccc(F)cc3C2)cc1Cl` ?
label 1

====

Tested on: A549 NSCLC
Procedure Summary: NCI tumour cell line growth inhibition, 48 h; in the data active = GI50 below about 0.43 µM; inactive = the rest
Hello, when you answer, please use one of the following outcomes: active, inactive

Example results:
Assay result, entry `CN1CCN(C(=O)/C=C/c2ccc([N+](=O)[O-])o2)CC1` — outcome?
inactive

Which outcome was entered for the compound `COc1cc2c(cc1OCCN1CCN(CCN3C(=O)c4cccc5cccc(c45)C3=O)CC1)N=C[C@@H]1CCCN1C2=O` in this test?
inactive

Just curious, what result did `COc1cc(/C=C/C(=O)c2nc3cc(F)ccc3nc2C)cc(OC)c1OC` get here?
inactive

Hi team, can someone confirm the assay call for `CC[C@]12C=CCN3CC[C@@]4(c5ccc(OC)cc5N(C)[C@H]4[C@@](O)(C(=O)OC)[C@@H]1OC(=O)CCCN1CCN(CCCC(=O)O[C@@H]4[C@]5(CC)C=CCN6CC[C@@]7(c8ccc(OC)cc8N(C)[C@H]7[C@@]4(O)C(=O)OC)[C@@H]65)CC1)[C@@H]32` ?
inactive

Hi, do you know how CC(C)c1ccc2c(c1)CCC1C2CCCC1(C)NCc1ccccc1 (stereo not drawn) came out in this test?
inactive

---
Please state the recorded outcome for this compound: CCCCCCCCCCCCOC1C(C(COC2OC(C(O)CO)C3OC(C)(C)OC23)OC(=O)Nc2ccccc2)OC2OC(C)(C)OC21 (stereo not drawn)
inactive

Hi, sorry to bother you, what did the test record for `COc1cc(/C=C/c2cc(/C=C/c3ccc(O)c(OC)c3)n(C(=O)Nc3ccc(C)cc3)n2)ccc1O` ?
active

In this assay, the call recorded for CC1=C(C(=O)Nc2ccc3[nH]ncc3c2)C(c2ccc(F)cc2)N=C(c2ccc(C(F)(F)F)nc2)N1 (stereo not drawn) was what?
inactive

====

Record form. Attribute: TGI. Fill in for each entry.
Tested on: SK-MEL-28 melanoma
Procedure Summary: NCI tumour cell line growth inhibition, 48 h

Illustrative cases are given below, each with its answer.
Quote TGI reported for `C=C1CC[C@@H]2[C@](C)(COC(=O)CCC(=O)OC)CCC[C@@]2(C)[C@@H]1CCC1=CC(=O)OC1` please.
> 100 µM

Return value of TGI for input CC(C)(C)C1CC[C@H]2c3c([nH]c4ccccc34)[C@H]3C(=O)N(c4ccc(F)cc4)C(=O)[C@H]3[C@H]2C1 (some centres undefined) , no commentary.
46.5 µM

Complete the entry with TGI for `O=c1c2ccccc2nc2n1CCc1c-2[nH]c2ccccc12`
62.4 µM

Supply measured TGI of `O=c1c2sc3ccccc3sc=2c(=O)c2c(Cl)c(Cl)c(Cl)c(Cl)c12` in your reply.
> 100 µM

State recorded TGI for all listed molecules.
1. O=C(NO)c1ccc(CNc2cccc3nc(C4CC4)n(-c4ccccc4)c(=O)c23)cc1
2. Cc1ccc(-c2nc([P+](c3ccccc3)(c3ccccc3)c3ccccc3)c(N3CCOCC3)o2)cc1
3. C#CCN(C(=O)C(F)(F)F)C(/C=C\C(=O)OC)(C(=O)OCC)C(=O)OCC
4. COc1cc(NC(=O)COc2ccccc2)c(C(N)=O)cc1OC

1. 4.26 µM
2. 9.18 µM
3. > 100 µM
4. > 100 µM

Below are 5 molecules. Give each one its TGI.
1. Cc1ccc2c(c1C)CC1(Cc3ccc(C)c(C)c3C1=O)C2=O (centres undefined)
2. CCN1CCN(CC(=O)Nc2nc3ccc(NCc4ccc(Br)cc4)cc3s2)CC1
3. c1ccc(C(NC2=NCCO2)C2CC2)cc1 (centres undefined)
4. Nc1cc(C(F)(F)F)c(-c2nc(N3CCOCC3)nc(N3CCOCC3)n2)cn1
5. O=C(O)c1ccccc1/C=C1\Cc2cc3c(cc2C1=O)CCC3

1: > 100 µM; 2: 3.76 µM; 3: > 100 µM; 4: 3.71 µM; 5: > 100 µM

Quick one: give me TGI for each item below, same order please.
1. O=C(CC1(O)C(=O)Nc2c(Cl)ccc(Cl)c21)c1ccc(Cl)cc1 (centres undefined)
2. CCOc1ccc(NC(=O)C(=O)C(/C(=N/N)C(=O)OC)c2nc3ccc([N+](=O)[O-])cc3[nH]c2=O)cc1 (centres undefined)
3. N#C[Se]CCN1C(=O)c2ccccc2C1=O
4. CC(C)(C)n1c(=O)n2c(-c3ccccc3)c(-c3ccccc3)n2c1=O
5. CCCCCCCCCCN=C(N)c1ccc(N2CCN(c3ccc(C(N)=NCCCCCCCCCC)cc3)CC2)cc1
6. O=C1C(Cl)=CC2(C=C1Cl)CCN=c1c(O)c3c(c(O)c12)=NC=N3
7. CS(=O)(=O)CCC1CCC(=O)O1 (centres undefined)
8. COc1ccc(OC)c(/C=C2/C(=O)N=C(NC(C)=O)N2C)c1

1: > 100 µM; 2: > 100 µM; 3: 4.99 µM; 4: > 100 µM; 5: 36 µM; 6: > 100 µM; 7: > 100 µM; 8: > 100 µM
